Taken from PubChem BioAssay (NCATS).

# System: CP329
# METHOD_NOTES: qHTS profiling for inhibitors of Plasmodium falciparum proliferation (AID 504749); note: nearly all actives have a fitted effect of over 60% in size; note: potency is the fitted concentration of half-maximal effect
# MEASUREMENT_PARAMETERS: P. falciparum in erythrocytes, SYBR Green DNA, 72 h; series mostly up to 28.7 µM
Records with an inconclusive call do not appear. The source made the active and inactive calls. Calls come from the whole dose curve; as a rule, active = well fitted inhibition curve with a large enough effect; inconclusive = small, poorly fitted or top-dose-only effect; inactive = flat fitted curve, though single readings scatter.
MEASURED_ENDPOINT: Potency

compound="CC[C@@H](C)C(N)C(=O)O (stereo partly drawn)" measured_endpoint=Potency readout_value=inactive
compound=C=C(NCc1ccccc1)c1ccccc1O measured_endpoint=Potency readout_value=inactive
compound="CCOC(=O)C(CCc1ccccc1)NC(C)C(=O)N1Cc2cc(OC)c(OC)cc2CC1C(=O)O (stereo not drawn)" measured_endpoint=Potency readout_value=inactive
compound="COc1cc2c(cc1O)CCN[C@@]21CS[C@H]2c3c(OC(C)=O)c(C)c4c(c3C(COC1=O)N1C2C2c3c(cc(C)c(OC)c3O)CC([C@@H]1O)N2C)OCO4 (stereo partly drawn)" measured_endpoint=Potency readout_value="0.5 nM (active)"
compound="C=CC1CN2CCC1CC2[C@@H](O)c1ccnc2ccc(OC)cc12 (stereo partly drawn)" measured_endpoint=Potency readout_value="953 nM (active)"
compound="N#C/C(=C1/SCC(c2ccccc2Cl)S1)n1ccnc1 (stereo not drawn)" measured_endpoint=Potency readout_value=inactive
compound="OCCOC[C@H]1O[C@H](OCCO)[C@H](OCCO)[C@@H](OCCO)[C@@H]1OCCO (tested in a mixture with another compound)" measured_endpoint=Potency readout_value=inactive
compound="Cc1cc2nc3c(=O)[nH]c(=O)nc-3n(CC(O)C(O)C(O)COP(=O)(O)O)c2cc1C (stereo not drawn)" measured_endpoint=Potency readout_value=inactive
